- target-under-test: full-length human BTK (Homo sapiens)
- Construct: 2.5× stocks of full-length human BTK (08-080); purchased CarnaBio USA, Inc., Natick, Mass; 08-080
- Sequence (Q06187 whole entry): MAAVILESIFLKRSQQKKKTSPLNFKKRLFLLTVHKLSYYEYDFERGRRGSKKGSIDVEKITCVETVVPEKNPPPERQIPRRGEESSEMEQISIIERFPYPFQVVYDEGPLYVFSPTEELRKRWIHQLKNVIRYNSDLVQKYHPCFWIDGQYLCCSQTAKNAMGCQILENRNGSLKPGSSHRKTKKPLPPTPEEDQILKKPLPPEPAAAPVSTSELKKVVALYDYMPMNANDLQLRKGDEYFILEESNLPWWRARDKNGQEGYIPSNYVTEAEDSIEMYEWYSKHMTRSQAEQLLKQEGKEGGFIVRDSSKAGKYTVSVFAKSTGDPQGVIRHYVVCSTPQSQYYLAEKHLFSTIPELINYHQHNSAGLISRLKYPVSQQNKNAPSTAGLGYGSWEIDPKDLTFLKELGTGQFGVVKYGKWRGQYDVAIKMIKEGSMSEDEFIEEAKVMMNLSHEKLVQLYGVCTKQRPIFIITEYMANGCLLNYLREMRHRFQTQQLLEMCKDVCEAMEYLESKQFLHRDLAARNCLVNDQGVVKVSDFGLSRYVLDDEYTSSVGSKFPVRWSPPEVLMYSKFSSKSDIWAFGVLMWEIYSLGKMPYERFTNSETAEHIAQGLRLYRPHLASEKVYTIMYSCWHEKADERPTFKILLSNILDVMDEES
- assay: Assay A: BTK IC50 Enzyme Assay (microfluidic off-chip mobility shift kinase assay)
- Assay type: biochemical
- cond: full-length human BTK, kinKDR peptide substrate, incubated 90 min at 27 C; read-out: Assay A (Time Dependent BTK Enzyme Assay IC50)
Give IC50 for every item shown.

Solved cases below.
- C=CC(=O)N1CCC(c2cc(Oc3ccc(OCc4ccccc4)cc3)c(C(N)=O)cn2)C1 (stereo not drawn): < 100 nM
- C=CC(=O)N[C@H]1CCN(c2ccc(C(N)=O)c(Oc3ccc(NC(=O)c4ccccc4)cc3)n2)C1: 100 to 1000 nM
- C=CC(=O)N1C2CC1CN(c1ncc(C(N)=O)c(Oc3ccc(Oc4ccccc4)cc3)n1)C2: 100 to 1000 nM
- C=CC(=O)N1CC2CCC1CN2c1ncc(C(N)=O)c(Oc2ccc(Oc3ccccc3)cc2)n1 (stereo not drawn): < 100 nM
- C=CC(=O)N1CC=C(c2ccc(C(N)=O)c(Nc3ccc(C(=O)N4CCCCC4)cc3)n2)CC1: < 100 nM

Please give IC50, item by item, for the list that follows.
1. C=CC(=O)N[C@@H]1CCCN(c2ccc(C(N)=O)c(Nc3ccc(C(=O)N4CCOCC4)cc3)n2)C1
2. N#CNC(=O)N1CCN(c2ccc(C(N)=O)c(Oc3ccc(Oc4ccccc4)cc3)n2)CC1
3. C=CC(=O)N1CCC(c2cnc(Oc3ccc(Oc4ccccc4)cc3)c(C(N)=O)c2)CC1
4. C=CC(=O)N1CCC(c2ncc(C(N)=O)c(Oc3ccc(Oc4ccccc4)cc3)n2)CC1
5. C=CC(=O)N1CCCN(c2ncc(C(N)=O)c(Oc3ccc(Oc4ccccc4)cc3)n2)CC1

1: < 100 nM; 2: 1000 to 5000 nM; 3: 100 to 1000 nM; 4: < 100 nM; 5: 100 to 1000 nM

Can you give me IC50 for all of these, one by one?
1. C=CC(=O)N1CCC(c2ccc(C(N)=O)c(Nc3ccc(C)nc3)n2)CC1
2. C=CC(=O)N1CC=C(c2ccc(C(N)=O)c(Nc3ccc(OC4CCN(C)CC4)cc3)n2)CC1

< 100 nM
< 100 nM

// for each compound below, give its IC50
1. C=CC(=O)N(C)[C@H]1CCN(c2ccc(C(N)=O)c(Oc3ccc(Oc4ccccc4)cc3)n2)C1
2. C=CC(=O)N1CCC=C(c2ccc(C(N)=O)c(Nc3ccc(CCN4CCCC4)cc3)n2)C1
3. C=CC(=O)N[C@H]1CCN(c2ccc(C(N)=O)c(NC3CCN(C)CC3)n2)C1
4. C=CC(=O)N1CCC(CNc2ncc(C(N)=O)c(Oc3ccc(Oc4ccccc4)cc3)n2)CC1
5. C=CC(=O)NCc1ccc(-c2ccc(C(N)=O)c(Oc3ccc(Oc4ccccc4)cc3)n2)o1
6. CN(C)C/C=C/C(=O)N1CCC(Nc2ncc(C(N)=O)c(N)n2)C1 (stereo not drawn)

1. < 100 nM
2. < 100 nM
3. > 5000 nM
4. 100 to 1000 nM
5. > 5000 nM
6. > 5000 nM

Hi there! I need IC50 for each item below, if you can.
1. C/C=C/C(=O)N1CCC(Nc2cnc(Oc3ccc(Oc4ccccc4)cc3)c(C(N)=O)c2)CC1
2. N#CN1CCC[C@H](c2cnc(Oc3ccc(Oc4ccccc4)cc3)c(C(N)=O)c2)C1
3. C=CC(=O)N[C@H]1CCN(c2ccc(C(N)=O)c(Nc3cncc(C)c3)n2)C1
4. C=CC(=O)N1CC2CN(c3cnc(Oc4ccc(Oc5cccc(F)c5)cc4)c(C(N)=O)c3)CC2C1 (stereo not drawn)
5. C=CC(=O)N1CCN(c2nc(N(C)c3cccc(C)c3)ccc2C(N)=O)CC1
6. C=CC(=O)N1CCCC(c2ccc(C(N)=O)c(Nc3ccc(CCN4CCCC4)cc3)n2)C1 (stereo not drawn)

1. 1000 to 5000 nM
2. < 100 nM
3. < 100 nM
4. 100 to 1000 nM
5. 100 to 1000 nM
6. < 100 nM
